Recorded values, source the DeepSol protein solubility set.

# method.summary: soluble on expression in E. coli; label from the status in PepcDB or PDB records
endpoint.label: soluble on expression in E. coli

# count of solved cases: 4
>>> recorded_value("MKFFNREKEINEILLILEEEPNNIYFIYGPLNSGKSTLIREVITNRLDKSKYIPFFIDFRTRNILNVDNFIECLFEVDEKSKIDDFREYAKSLADLLVKGSEEISKYYLGMPIKVPKPFFDRIFSKRDKSADVYQYIEYLFAKLNEKGKKPILIFDELQMIREITLNGNRLLLWSLFQFLVALTKVQHLCHVFCLSSDSLFIEYIYGKAELKGGVDYILVDDFDKKTALKFMDFLAKQKNINLTNEDKELIYSYVGGKAKYIYDVIVKLKAVKDLKYILETKLEEERNHLEELLEKVEEDYEGINYDEVLEALKLFKDNYELPKSKIKRKIRIFLIKENILFLNPQKGTLKPQSYLVWNAIKRML")
"not soluble"
>>> recorded_value("MKSFKEQYTLDERLAESREIIAKYPTRIPVIAEKYCKTDLPAIEKKKFLVPRDMSVGQFIYILSARLHLSPGKALFVFVNNTLPQTAALMDSVYESYKDDDGFVYMCYSSEKTFG")
"not soluble"
>>> recorded_value("MILIFEEHRMQLSSEQCDFFFTNGYLVINNFFSESVCDLLKQRIETLLENNQAEIPKTIFSTQTNEHAKKQYFLDSGDKIHYFFEPGAFDEAGDWLRPFNQSINKIGHALHELDPVFRQYSRDDRIKKIAHQLGLKTLGLVQSMYIFKQPGIGAEVLCHQDSTYIFGEDSDALGFWFAIEDATLENGCLEVIPSPCTTPLKQRMFRRENEIYFENFDSSPWPEENSVPLPVKKGALIILHGRVPHKSQANFSNQSRHAYTLHLVDISLPYPEKNWLQWPNGIPCLLEHHHHHH")
"soluble"
>>> recorded_value("MGSDKIHHHHHHMIEVTQGSSPLVLGLPHTGTDVPAEVAQHLNDRGQALADTDWHIHDLYAGLVEGVTTVRTPIHRYVIDVNRDPEGVSLYPGQNTTTLVPLTDFDGHPIWQQEPDAAETAHRLETYHVPYHAALEAEMKRVAGLHGFAILYDCHSIRGDIPFLFEGRLPDFNVGTNLGATCAPSIEDMVFQRCQRAEGYTSVLNGRFKGGWTTRHYGRPDQGWHAIQMELAQATYCDEQPPWRYDPVRADRLRGHLTQILTDLTEWRPA")
"not soluble"

Each of the following entries comes with a recorded value; kindly state soluble on expression in E. coli for each.
1. MGSISRYLLKKAADGLKDEQRLKIEMSDSKSVPECFHFNRERRMPIAEINGEDGFFMFPSQQSLENFENTKKYSNELSPDAIGIPLFQIINCTLPFGKRGHSNTVVGNVPYYKIFKFILRTADEPPPYTVAKIVCSNNGLILYKVPLYDIYKNVSQANVTYSFVGTTSTEPNLLAMAHREGHRDLDTKVNNLNLRWHVTYSPVVTNDHYKLILLADYEVNRLDEDVIRAAKNKMSIDQKDQKVQRFVAAHYTREFETSLFRWVAQEGHLILGEYSTDQGSFGLNNIPPLTEELGCQSLLIHYIEYMKRQRKKIAKEARRQNKRNVANTTNMNMNLM
2. MGSDKIHHHHHHSCDDDGYSIGDIGWDWATVRATGGGGYYLEGDRWGMIDPVASSIPWYKPVDGERVVAFFNPLADTDKGAQVKIEGIQEVLTKEVEDMTAENEEEFGNDPIVIYQGDMWLGGKFLNIIFHQYLPRSEKHRISLVQNKIEPEAPETPEALNVDEDGYIHLELRYNTYDDVTGYRGWGRVSYNLEEFYPTAKDAAETEFKGFKVTINSKENGEGRVIVLDLDHPVGVPEKAKDVHSTSFVK
3. FDIALTGREGKKIGAAFIVGDSEEVLKRSHQIILNPYEGHEEAHRNILDRRNWESIKEFALLDGVFVIDETGIVRAAGRYLDVDGKNIDIEKGLGGRHVSAAAISRDTVAISVTVSESGGVLRVYKDAKETICMESLQPASRYV
4. MGTPQGKLKTINGVGKIEDFASTKAKMRVRYPLLITFNYWVLYKSPDKSWFISANPSTEDVWVYARSVPSKAKLNRMMMKVRELGYDVKKLEFPLEHHHHHH

Return:
1. soluble
2. not soluble
3. not soluble
4. not soluble

Answer for every listed entry: what is its soluble on expression in E. coli? The entries follow.
1. MRGSHHHHHHGSACMKRQGASSERKRARIPSGKAGAANGFLMEVCVDSVESAVNAERGGADRIELCSGLSEGGTTPSMGVLQVVKQSVQIPVFVMIRPRGGDFLYSDREIEVMKADIRLAKLYGADGLVFGALTEDGHIDKELCMSLMAICRPLPVTFHRAFDMVHDPMAALETLLTLGFERVLTSGCDSSALEGLPLIKRLIEQAKGRIVVMPGGGITDRNLQRILEGSGATEFHCSARSTRDSGMKFRNSSVAMGASLSCSEYSLKVTDVTKVRTLNAIAKNILV
2. MTDEKKDDRPVYQAACHCGTVRFELRLTDGLRTARRCNCSLCRMRGAVAVSANLGDITVTQGEEALTLYQFHTREAKHYFCSRCGIYTFHQRRSAPDQYGVNVACIEGMSPFDFADVPVSEGRVHPKDRVDGGVGVAGWLRYEGNPEWGQGLEHHHHHH
3. SLPNGEGLQLKENSESEGVSCHYWSLFDGHAGSGAAVVASRLLQHHITEQLQDIVDILKNSAVLPPTCLGEEPENTPANSRTLTRAASLRGGVGAPGSPSTPPTRFFTEKKIPHECLVIGALESAFKEMDLQIERERSSYNISGGCTALIVICLLGKLYVANAGDSRAIIIRNGEIIPMSSEFTPETERQRLQYLAFMQPHLLGNEFTHLEFPRRVQRKELGKKMLYRDFNMTGWAYKTIEDEDLKFPLIYGEGKKARVMATIGVTRGLGDHDLKVHDSNIYIKPFLSSAPEVRIYDLSKYDHGSDDVLILATDGLWDVLSNEEVAEAITQFLPNCDPDDPHRYTLAAQDLVMRARGVLKDRGWRISNDRLGSGDDISVYVIPLIHGNKLS
4. MGSDKIHHHHHHMTEATYNFAYLDEQTKRMIRRAILKGIAIPGYQVPFASREMPMPYGWGTGGVQVTASILGPDDTLKVIDQGSDDTTNAISIRKFFAKTAGVATTTATPDASVIQTRHRIPETPLHEGQVLVYQVPIPEPLRYLEPRETETRRMHALAEYGLMHVKLYEDIAKFGHIATAYAYPVKVAGRYVMDPSPTPKFDNPKMDNCPALQLFGAGREKRIYAIPPYTQVVSLDFEDHPFTRYRQDGCCALCGADDSYLDEIVTDNAGTRMFVCSDTDYCEGRRAQGHTGSETAPMESAHA

Return:
soluble
soluble
not soluble
not soluble
